Target: T1, human GM-CSF (human, UniProt P04141 18-144)
T1 construct: mature; the preparation is named under assay or readout; also called hGM-CSF; recombinant human GM-CSF
T1 sequence (P04141 18-144): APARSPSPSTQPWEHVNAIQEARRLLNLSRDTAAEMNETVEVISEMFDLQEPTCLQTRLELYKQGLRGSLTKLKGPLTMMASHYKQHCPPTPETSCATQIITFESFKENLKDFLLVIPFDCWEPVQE
Assay: FACS receptor inhibition assay: antibody pre-incubated with 0.5 µg/ml biotinylated GM-CSF, binding to GM-CSF receptor alpha on CHO-GMRa#11 cells
metric: IC50 (nM)
Field format: number, assumed nM, no unit text.

- binder: "MOR04252 Fab (Fab, V domains shown, Fab with FLAG and 6xHis tags) VH: QVQLVESGGGLVQPGGSLRLSCAASGFTFSSYWMNWVRQAPGKGLEWVSGIENKYAGGATYYAASVKGRFTISRDNSKNTLYLQMNSLRAEDTAVYYCARGFGTDFWGQGTLVTVSS VL: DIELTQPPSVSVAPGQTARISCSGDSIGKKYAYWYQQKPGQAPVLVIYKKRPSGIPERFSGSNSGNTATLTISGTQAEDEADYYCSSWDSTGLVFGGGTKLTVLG"
  unit.of.measurement: "nM"
  IC50: 26

[Q] Bench note: what IC50 did MOR04302 Fab (Fab, V domains shown, Fab with FLAG and 6xHis tags) VH: QVQLVESGGGLVQPGGSLRLSCAASGFTFSSYWMNWVRQAPGKGLEWVSGISYSGSETYYADSVKGRFTISRDNSKNTLYLQMNSLRAEDTAVYYCARGFGTDFWGQGTLVTVSS VL: DIELTQPPSVSVAPGQTARISCSGDSIGKKYAYWYQQKPGQAPVLVIYKKRPSGIPERFSGSNSGNTATLTISGTQAEDEADYYCSAWGDKGMVFGGGTKLTVLG show?
[A] 24

[Q] Now consider MOR03929 Fab (Fab, V domains shown, Parental HuCAL GOLD Fab with C-terminal FLAG and 6xHis tags) VH: QVQLVESGGGLVQPGGSLRLSCAASGFTFSSYWMNWVRQAPGKGLEWVSGISYSGSETYYADSVKGRFTISRDNSKNTLYLQMNSLRAEDTAVYYCARGFGTDFWGQGTLVTVSS VL: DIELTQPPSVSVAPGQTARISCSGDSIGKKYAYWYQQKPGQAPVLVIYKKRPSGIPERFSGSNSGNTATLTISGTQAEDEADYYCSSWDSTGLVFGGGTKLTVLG .
[A] 35
